Reported GI50 at 72 h by item:
# TEST SUMMARY: Cell proliferation inhibition (cytotoxicity) MTT assay for 3T3 cell line
# Type: cell-based, Mouse
# RUN PARAMETERS: 3T3 mouse fibroblast cells; 3T3 mouse fibroblasts, MTT, 72 hrs, n = 3; read-out: 3T3 cell-line GI50 ± SEM

smiles_str=Fc1ccc(NC(=S)Nc2ccccc2)c(F)c1 readout_kind="GI50 at 72 h" experimental_result="> 30 µM"
smiles_str=Cc1ccccc1NC(=S)Nc1cccc(Cl)c1 readout_kind="GI50 at 72 h" experimental_result="> 30 µM"
smiles_str=Cc1cccc(NC(=S)Nc2cccc(Cl)c2)c1 readout_kind="GI50 at 72 h" experimental_result="> 30 µM"
smiles_str=Cc1ccc(NC(=S)Nc2cccc(Cl)c2)c(C)c1 readout_kind="GI50 at 72 h" experimental_result="> 30 µM"
smiles_str=S=C(Nc1cccc(Cl)c1)Nc1ccc(Cl)cc1Cl readout_kind="GI50 at 72 h" experimental_result="21.4 µM"

compound Cc1ccc(C)c(NC(=S)Nc2cccc(Cl)c2)c1 , GI50 at 72 h observed: > 30 µM

compound S=C(Nc1cccc(Cl)c1)Nc1cccc(Cl)c1Cl , GI50 at 72 h observed: > 30 µM

compound Cc1ccc(Cl)cc1NC(=S)Nc1cccc(Cl)c1 , GI50 at 72 h observed: 24.6 µM

compound S=C(Nc1cccc(Cl)c1)Nc1cccc(Cl)c1 , GI50 at 72 h observed: > 30 µM

compound Fc1ccc(NC(=S)Nc2cccc(Cl)c2)cc1 , GI50 at 72 h observed: > 30 µM
